Listed compounds paired with reported IC50
- tested.target: acetylcholinesterase from human red blood cells (Homo sapiens, UniProt P22303)
- Construct: purchased Sigma Chemical; host or cells: human erythrocyte
- Sequence (P22303 32-617 isoform P22303-2 limits assumed): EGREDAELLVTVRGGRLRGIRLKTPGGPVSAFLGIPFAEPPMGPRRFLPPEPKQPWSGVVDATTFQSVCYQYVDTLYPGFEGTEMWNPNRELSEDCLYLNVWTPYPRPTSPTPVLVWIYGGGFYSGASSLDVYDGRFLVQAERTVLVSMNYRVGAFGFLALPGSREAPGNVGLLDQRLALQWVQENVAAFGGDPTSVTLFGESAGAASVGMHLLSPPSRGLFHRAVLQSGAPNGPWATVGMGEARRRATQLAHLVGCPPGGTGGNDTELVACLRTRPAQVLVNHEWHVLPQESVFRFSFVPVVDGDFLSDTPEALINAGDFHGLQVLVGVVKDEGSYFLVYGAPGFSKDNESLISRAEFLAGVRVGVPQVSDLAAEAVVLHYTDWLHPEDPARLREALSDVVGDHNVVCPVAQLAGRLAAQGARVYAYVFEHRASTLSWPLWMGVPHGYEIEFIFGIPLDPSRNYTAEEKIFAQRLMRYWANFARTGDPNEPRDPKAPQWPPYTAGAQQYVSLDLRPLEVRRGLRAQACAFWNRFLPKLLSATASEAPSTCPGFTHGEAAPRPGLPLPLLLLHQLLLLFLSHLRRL
- method: Inhibition of acetylcholinesterase from human erythrocyte (Ellman colorimetric method)
- Type: biochemical
- test.context: Cholinesterase Inhibition IC50, AChE hRBC, contact time 10'
readout.label: IC50 (nM)

>>> observed_measurement("CCN1CCN(CCCCCCCCNC(=O)Oc2ccc3c(c2)[C@]2(C)CCN(C)[C@@H]2N3C)CC1 [MF 262]")
30
>>> observed_measurement("CC(=O)N1CCN(CCCCCCCCNC(=O)Oc2ccc3c(c2)[C@]2(C)CCN(C)[C@@H]2N3C)CC1 [MF 240]")
240
>>> observed_measurement("CC(=O)N1CCN(CCCCCCCCCCNC(=O)Oc2ccc3c(c2)[C@]2(C)CCN(C)[C@@H]2N3C)CC1 [MF 252]")
27
>>> observed_measurement("CN1CC[C@@]2(C)c3cc(OC(=O)NCCCCCCCCN4CC=CC4)ccc3N(C)[C@@H]12 [MF 250]")
30
>>> observed_measurement("CN1CC[C@@]2(C)c3cc(OC(=O)NCCCCCCCCN4CCSCC4)ccc3N(C)[C@@H]12 [MF 239]")
50
>>> observed_measurement("CCCN(CCC)CCCCCCCCNC(=O)Oc1ccc2c(c1)[C@]1(C)CCN(C)[C@@H]1N2C [MF 256]")
80
>>> observed_measurement("C[C@@H]1CN(CCCCCCCCNC(=O)Oc2ccc3c(c2)[C@]2(C)CCN(C)[C@@H]2N3C)C[C@H](C)O1 [MF 268]")
70
>>> observed_measurement("CCN(CC)CCCCCCCCCCNC(=O)Oc1ccc2c(c1)[C@]1(C)CCN(C)[C@@H]1N2C [MF 247]")
17

* * *

- tested.target: acetylcholinesterase from human red blood cells (Homo sapiens, UniProt P22303)
- Construct: purchased Sigma Chemical; host or cells: human erythrocyte
- method: Inhibition of acetylcholinesterase from human erythrocyte (Ellman colorimetric method)
- Format: biochemical
- test.context: read-out: Cholinesterase Inhibition IC50, AChE hRBC; contact time 10'
readout.label: IC50 (µM)

>>> observed_measurement("CN1CC[C@@]2(C)c3cc(OC(=O)N4CCOCC4)ccc3N(C)[C@@H]12 [MF 215, reference compound]")
19
>>> observed_measurement("C[C@@H]1CN(CCCCCCCCNC(=O)Oc2ccc3c(c2)[C@]2(C)CCN(C)[C@@H]2N3C)C[C@@H](C)O1")
0.07

* * *

- tested.target: acetylcholinesterase from electric eel (Electrophorus electricus)
- Construct: purchased Sigma Chemical; host or cells: electric eel
- Sequence (O42275 24-633): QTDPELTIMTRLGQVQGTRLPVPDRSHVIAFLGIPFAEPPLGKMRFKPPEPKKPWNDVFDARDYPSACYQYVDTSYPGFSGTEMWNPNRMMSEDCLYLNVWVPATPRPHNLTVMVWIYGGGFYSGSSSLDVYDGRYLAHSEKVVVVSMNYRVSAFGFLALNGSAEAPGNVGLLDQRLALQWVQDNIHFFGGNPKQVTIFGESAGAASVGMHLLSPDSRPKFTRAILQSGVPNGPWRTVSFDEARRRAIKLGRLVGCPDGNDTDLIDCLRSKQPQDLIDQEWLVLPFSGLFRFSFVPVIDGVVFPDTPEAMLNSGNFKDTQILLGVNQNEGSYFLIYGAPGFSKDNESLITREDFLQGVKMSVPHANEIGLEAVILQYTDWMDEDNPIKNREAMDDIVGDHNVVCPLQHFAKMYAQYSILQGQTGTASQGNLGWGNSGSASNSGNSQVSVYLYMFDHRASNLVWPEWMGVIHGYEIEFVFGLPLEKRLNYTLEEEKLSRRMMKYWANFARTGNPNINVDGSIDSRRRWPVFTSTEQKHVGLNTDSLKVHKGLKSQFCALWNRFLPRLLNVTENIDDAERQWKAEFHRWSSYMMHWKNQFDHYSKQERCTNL
- method: biochemical
- test.context: contact time 30'; read-out: Cholinesterase Inhibition IC50, AChE E.eel
pIC50: −log10 of the molar value.
readout.label: pIC50

>>> observed_measurement("CCCCCCCNC(=O)Oc1ccc2c(c1)[C@]1(C)CCN(C)[C@@H]1N2C [MF 201, heptylcarbamic ester of eseroline, reference compound]")
6.39

* * *

- tested.target: acetylcholinesterase from human red blood cells (Homo sapiens)
- Construct: purchased Sigma Chemical; host or cells: human erythrocyte
- method: Inhibition of acetylcholinesterase from human erythrocyte (Ellman colorimetric method)
- Assay type: biochemical
- test.context: Cholinesterase Inhibition IC50, AChE hRBC, contact time 60'
readout.label: IC50 (nM)

>>> observed_measurement("CN1CC[C@@]2(C)c3cc(OC(=O)NCCCCCCCCCCCCN4CCOCC4)ccc3N(C)[C@@H]12")
30
>>> observed_measurement("CCN(CC)CCCCCCCCNC(=O)Oc1ccc2c(c1)[C@]1(C)CCN(C)[C@@H]1N2C")
30
>>> observed_measurement("CN1CC[C@@]2(C)c3cc(OC(=O)NCCN4CCOCC4)ccc3N(C)[C@@H]12")
110
>>> observed_measurement("CN1CC[C@@]2(C)c3cc(OC(=O)NCCCCCCCCN4CCOCC4)ccc3N(C)[C@@H]12")
63

* * *

- method: in vivo
- test.context: rat, po
readout.label: LD50 (mg/kg)

>>> observed_measurement("CN1CC[C@@]2(C)c3cc(OC(=O)NCCCCCCCCCCN4CCOCC4)ccc3N(C)[C@@H]12")
40
>>> observed_measurement("CN1CC[C@@]2(C)c3cc(OC(=O)NCCCCCCCCN4CCOCC4)ccc3N(C)[C@@H]12")
23
>>> observed_measurement("C[C@@H]1CN(CCCCCCCCNC(=O)Oc2ccc3c(c2)[C@]2(C)CCN(C)[C@@H]2N3C)C[C@H](C)O1")
56
>>> observed_measurement("CN1CCN(CCCCCCCCNC(=O)Oc2ccc3c(c2)[C@]2(C)CCN(C)[C@@H]2N3C)CC1")
27.7
>>> observed_measurement("CNC(=O)Oc1ccc2c(c1)[C@]1(C)CCN(C)[C@@H]1N2C")
4.5
>>> observed_measurement("CN1CC[C@@]2(C)c3cc(OC(=O)NCCCCCCCCN4CCSCC4)ccc3N(C)[C@@H]12")
23.8

Data origin, for the record: patent US5424451A
